# study-target: T1, activated Protein C (APC) (human, UniProt P04070 43-197; P04070 212-461)
# T1 construct: also called human plasma APC
# T1 sequence (P04070 43-197, chain 1 of 2): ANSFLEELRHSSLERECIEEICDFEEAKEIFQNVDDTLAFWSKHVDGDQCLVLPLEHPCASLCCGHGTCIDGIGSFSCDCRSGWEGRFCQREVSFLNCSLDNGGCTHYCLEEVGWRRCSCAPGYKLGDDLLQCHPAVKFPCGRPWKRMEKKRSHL
# T1 sequence (P04070 212-461, chain 2 of 2): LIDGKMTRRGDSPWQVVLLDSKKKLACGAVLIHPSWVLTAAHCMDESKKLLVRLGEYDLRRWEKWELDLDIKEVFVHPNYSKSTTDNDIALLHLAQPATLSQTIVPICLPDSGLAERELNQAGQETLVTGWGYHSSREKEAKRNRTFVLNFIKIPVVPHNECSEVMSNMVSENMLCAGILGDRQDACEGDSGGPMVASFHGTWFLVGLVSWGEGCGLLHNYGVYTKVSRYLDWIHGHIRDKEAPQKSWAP
# test-summary: pseudo-first-order inhibition kinetics, residual chromogenic activity
Consider the following binders and their measured second-order rate constant of inhibition readings.
Kindly provide the numeric value in M⁻¹ s⁻¹ only, without the unit symbol.

FL α1AT Pitts C232S (other, Serpin; E. coli, SUMO tag removed; also called α1-antitrypsin Pittsburgh) SDPQGDAAQKTDTSHHDQDHPTFNKITPNLAEFAFSLYRQLAHQSNSTNIFFSPVSIATAFAMLSLGTKADTHDEILEGLNFNLTEIPEAQIHEGFQELLRTLNQPDSQLQLTTGNGLFLSEGLKLVDKFLEDVKKLYHSEAFTVNFGDTEEAKKQINDYVEKGTQGKIVDLVKELDRDTVFALVNYIFFKGKWERPFEVKDTEEEDFHVDQVTTVKVPMMKRLGMFNIQHSKKLSSWVLLMKYLGNATAIFFLPDEGKLQHLENELTHDIITKFLENEDRRSASLHLPKLSITGTYDLKSVLGQLGITKVFSNGADLSGVTEEAPLKLSKAVHKAVLTIDEKGTEAAGAMFLEAIPRSIPPEVKFNKPFVFLMIEQNTKSPLFMGKVVNPTQK	108000
FL α1AT Pitts C232S P2KP1′K (other, E. coli, SUMO tag removed; also called P2KP1′K α1AT; P2KP1′K mutant of α1AT Pitts) SDPQGDAAQKTDTSHHDQDHPTFNKITPNLAEFAFSLYRQLAHQSNSTNIFFSPVSIATAFAMLSLGTKADTHDEILEGLNFNLTEIPEAQIHEGFQELLRTLNQPDSQLQLTTGNGLFLSEGLKLVDKFLEDVKKLYHSEAFTVNFGDTEEAKKQINDYVEKGTQGKIVDLVKELDRDTVFALVNYIFFKGKWERPFEVKDTEEEDFHVDQVTTVKVPMMKRLGMFNIQHSKKLSSWVLLMKYLGNATAIFFLPDEGKLQHLENELTHDIITKFLENEDRRSASLHLPKLSITGTYDLKSVLGQLGITKVFSNGADLSGVTEEAPLKLSKAVHKAVLTIDEKGTEAAGAMFLEAIKRKIPPEVKFNKPFVFLMIEQNTKSPLFMGKVVNPTQK	15100

Then there is this binder:
Any idea what second-order rate constant of inhibition was measured for FL α1AT Pitts C232S P2K (other, E. coli, SUMO tag removed; also called P2K α1AT Pitts; P2.G11) SDPQGDAAQKTDTSHHDQDHPTFNKITPNLAEFAFSLYRQLAHQSNSTNIFFSPVSIATAFAMLSLGTKADTHDEILEGLNFNLTEIPEAQIHEGFQELLRTLNQPDSQLQLTTGNGLFLSEGLKLVDKFLEDVKKLYHSEAFTVNFGDTEEAKKQINDYVEKGTQGKIVDLVKELDRDTVFALVNYIFFKGKWERPFEVKDTEEEDFHVDQVTTVKVPMMKRLGMFNIQHSKKLSSWVLLMKYLGNATAIFFLPDEGKLQHLENELTHDIITKFLENEDRRSASLHLPKLSITGTYDLKSVLGQLGITKVFSNGADLSGVTEEAPLKLSKAVHKAVLTIDEKGTEAAGAMFLEAIKRSIPPEVKFNKPFVFLMIEQNTKSPLFMGKVVNPTQK ?
64800
